Molecular target: T1, Human TIGIT-His (human, UniProt Q495A1 22-141, biotinylated in the ForteBio Fab assay)
T1 construct: bought (Creative Biomart); also called Biotinylated Human TIGIT HIS; TIGIT-His monomer; not shown: His tag
T1 sequence (looked up): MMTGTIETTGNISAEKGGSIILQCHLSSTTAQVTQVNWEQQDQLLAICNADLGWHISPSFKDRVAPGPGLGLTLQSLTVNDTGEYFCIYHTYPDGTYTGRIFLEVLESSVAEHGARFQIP
Assay: Biacore 8K, IgG on CM5 chip, human TIGIT-HIS in solution
Method: Biosensor analysis was conducted at 25° C. in a HBS-EP buffer system (10 mM HEPES pH 7.3, 150 mM NaCl, 3 mM EDTA, 0.05% Surfactant P20) using a Biacore 8K optical biosensor docked with a CMS sensor chip (GE Healthcare, Marlboro, Mass.). The sample hotel was maintained at 8° C. […] This surface type provided a format for reproducibly capturing fresh analysis antibody after each regeneration step. […]
parameter: pKd
Friendly reminder that pKd comes from taking -log10 of the concentration in mol/L.

Hello, please tell me recorded pKd for this one: anti-TIGIT antibody clone 29520 (IgG) (antibody, V domains shown) VH: QVQLVESGGGLVQPGRSLRLSCAASGFTFRDYAMHWVRQAPGKGLEWVSGITWNSGLIGYADSVKGRFTISRDNAKNSLYLQMNSLRAEDTALYYCAKPVPRLRGLDVWGQGTMVTVSS VL: DIQLTQSPSSVSASVGDRVTITCRASQGISSWLAWYQQKPGKAPKLLIYGASSLQSGVPSRFSGSGSGTDFTLTISSLQPEDFATYYCQQAFYLPWTFGGGTKVEIK
9.15

Hello, please tell me recorded pKd for this one: anti-TIGIT antibody clone 31288 (IgG) (antibody, V domains shown, human IgG) VH: QLQLQESGPGLVKPSETLSLTCTVSGGSISSGSYYLAWIRQPPGKGLEWIGSIFRSGSTYYNPSLESRVTISVDTSKNQFSLKLSSVTAADTAVYYCAIEGANFKDFGYVAFDIWGQGTTVTVSS VL: EIVMTQSPATLSVSPGERATLSCRASQSVSSNLAWYQQKPGQAPRLLIYGASTRATGIPARFSGSGSGTEFTLTISSLQSEDFAVYYCQQSPPWPRTFGGGTKVEIK
9.72

Hello, please tell me recorded pKd for this one: anti-TIGIT antibody clone 29494 (IgG) (antibody, V domains shown) VH: QVQLQESGPGLVKPSETLSLTCTVSGGSISSGSYYLAWIRQPPGKGLEWIGSIFRSGSTYYNPSLESRVTISVDTSKNQFSLKLSSVTAADTAVYYCAIEGANFKDFGYVAFDIWGQGTMVTVSS VL: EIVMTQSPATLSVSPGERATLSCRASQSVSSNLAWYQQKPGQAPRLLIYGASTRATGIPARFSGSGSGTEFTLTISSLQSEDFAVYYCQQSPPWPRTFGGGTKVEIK
9.57

Hello, please tell me recorded pKd for this one: anti-TIGIT antibody clone 29527 (IgG) (antibody, V domains shown) VH: QVQLVESGGGVVQPGRSLRLSCAASGFTFSSSYMHWVRQAPGKGLEWVAVIGADGSNKYYADSVEGRFTISRDNSKNTLYLQMNSLRAEDTALYYCAKPVPRRRGLDVWGQGTMVTVSS VL: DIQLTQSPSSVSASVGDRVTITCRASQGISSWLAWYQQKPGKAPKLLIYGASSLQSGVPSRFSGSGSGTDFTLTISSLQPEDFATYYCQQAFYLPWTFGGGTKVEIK
8.92
